- test.description: Pharmacokinetics in orthotopic CT26-Luc tumor-bearing mice
- study.conditions: BALB/c, mouse, plasma, iv, 5 mg/kg
experimental.readout: MRT (min)
One number for each entry, in min.

*Q* So what does the record say about MRT for CC[C@@]1(O)C(=O)OCc2c1cc1n(c2=O)Cc2cc3ccccc3nc2-1 [Free CPT, (S)-(+)-camptothecin] ?
*A* 51.6

* * *

- test.description: Pharmacokinetics in orthotopic CT26-Luc tumor-bearing mice
- study.conditions: BALB/c, mouse, plasma, iv, 5 mg/kg
experimental.readout: AUC(0-inf) (ng·h/mL)
One number for each entry, in ng·h/mL.

*Q* Given the entry CC[C@@]1(O)C(=O)OCc2c1cc1n(c2=O)Cc2cc3ccccc3nc2-1 [Free CPT, (S)-(+)-camptothecin] , report its measured AUC(0-inf).
*A* 9480

* * *

- test.description: Pharmacokinetics in orthotopic CT26-Luc tumor-bearing mice
- study.conditions: BALB/c, mouse, plasma, iv, 1.7 mg/kg
- Experimental: The various pharmacokinetics parameters were assessed by one-compartmental model using PKSolver software.
experimental.readout: half-life (min)
Numbers only, in min.

*Q* Please report the recorded half-life for Cn1cc(C[C@@H](N)C(=O)O)c2ccccc21 [Free IND, 1-methyl-D-tryptophan] .
*A* 4.8

* * *

- test.description: Blood kinetics of CPT in SC CT26 tumor bearing mice
- study.conditions: BALB/c, mouse, plasma, iv, 5 mg/kg
experimental.readout: AUC(0-t) (ng·h/mL)
Numbers only, in ng·h/mL.

*Q* Would you mind telling me what AUC(0-t) value was observed for CC[C@@]1(O)C(=O)OCc2c1cc1n(c2=O)Cc2cc3ccccc3nc2-1 [Free CPT, (S)-(+)-camptothecin] ?
*A* 11000

* * *

- test.description: Pharmacokinetics in orthotopic CT26-Luc tumor-bearing mice
- study.conditions: BALB/c, mouse, plasma, iv, 1.7 mg/kg
experimental.readout: MRT (min)
One number for each entry, in min.

*Q* May I ask what MRT has been recorded for Cn1cc(C[C@@H](N)C(=O)O)c2ccccc21 [Free IND, 1-methyl-D-tryptophan] ?
*A* 24.6

* * *

- test.description: Maximum tolerated dose (MTD) and systemic toxicity in healthy mice
- Type: in vivo, BALB/c mice
- study.conditions: mouse, in vivo; single IV, healthy BALB/c mice, 14 days; no death, not more than 15% weight loss
experimental.readout: MTD at 14 days (mg/kg)
One number for each entry, in mg/kg.

*Q* Report MTD at 14 days for CC[C@@]1(O)C(=O)OCc2c1cc1n(c2=O)Cc2cc3ccccc3nc2-1 [Free CPT, (S)-(+)-camptothecin] please.
*A* 5

* * *

- test.description: Pharmacokinetics in orthotopic CT26-Luc tumor-bearing mice
- study.conditions: BALB/c, mouse, plasma, iv, 1.7 mg/kg
- Method: The various pharmacokinetics parameters were assessed by one-compartmental model using PKSolver software.
experimental.readout: AUC(0-inf) (ng·h/mL)
Answers are plain numbers, in ng·h/mL.

*Q* Endpoint output: AUC(0-inf) of Cn1cc(C[C@@H](N)C(=O)O)c2ccccc21 [Free IND, 1-methyl-D-tryptophan] . Value?
*A* 5670

* * *

- test.description: Blood kinetics of CPT in SC CT26 tumor bearing mice
- study.conditions: BALB/c, mouse, in vivo, iv, 5 mg/kg
experimental.readout: half-life (min)
One number for each entry, in min.

*Q* Recorded half-life of CC[C@@]1(O)C(=O)OCc2c1cc1n(c2=O)Cc2cc3ccccc3nc2-1 [Free CPT, (S)-(+)-camptothecin] , please.
*A* 4.2
